The reported measurements were obtained from ChEMBL document CHEMBL1129793.

Test system: Mycobacterium kansasii
assayRemarks: in vitro activity against Mycobacterium kansasii (SWK).
Type: functional
Measured Log 1/MMIC, listed per entry for reference.
Format: numeric value only, no unit, no commentary.

Some compounds with known Log 1/MMIC results, for comparison:
1. CCCOC(=O)c1cnc(Cl)cn1 | 2.904
2. CCCCCCCCCC(C)(C)OC(=O)c1cnc(Cl)cn1 | 2.815
3. CCCCCCC(C)(CCCCC)OC(=O)c1cnc(Cl)cn1 (centres undefined) | 1.63

-- ask Which measured Log 1/MMIC value corresponds to CCCCCCOC(=O)c1cnc(Cl)cn1 ?
-- reply 4.21

* * *

Test system: Mycobacterium avium
assayRemarks: In vitro activity against Mycobacterium avium (MAC-101).
Type: functional
Hi, to clarify the labels: Criterion met covers Log 1/MMIC from 0.5 upward, Criterion not met covers anything below 0.5.

1. CCCCCCCCCCCOC(=O)c1cnc(Cl)cn1 | Criterion met
2. CCCCCCCCCC(C)(C)OC(=O)c1cnc(Cl)cn1 | Criterion not met
3. CCCCCCCCCCOC(=O)c1cnccn1 | Criterion met
4. CCC(C)(CC)OC(=O)c1cnc(Cl)cn1 | Criterion not met

-- ask Hi, just wondering whether CCCCCCCCCOC(=O)c1cnc(C)cn1 shows Log 1/MMIC of 0.5 or higher.
-- reply Criterion met

-- ask Hi, just wondering whether CCCCCCC(C)(CCCC)OC(=O)c1cnc(Cl)cn1 (configuration not stated) shows Log 1/MMIC of 0.5 or higher.
-- reply Criterion not met

-- ask Hi, just wondering whether CCCCCCCCC(CC)OC(=O)c1cnc(Cl)cn1 (configuration not stated) shows Log 1/MMIC of 0.5 or higher.
-- reply Criterion not met

-- ask Hi, just wondering whether CCCCOC(=O)c1cnc(Cl)cn1 shows Log 1/MMIC of 0.5 or higher.
-- reply Criterion met

-- ask Hi, just wondering whether CCCCCCC(C)(CCCCCC)OC(=O)c1cnc(Cl)cn1 shows Log 1/MMIC of 0.5 or higher.
-- reply Criterion met

-- ask Hi, just wondering whether CCCCCCCCCCOC(=O)c1cnc(Cl)cn1 shows Log 1/MMIC of 0.5 or higher.
-- reply Criterion met

-- ask Hi, just wondering whether CCCCCCCCC(C)OC(=O)c1cnc(Cl)cn1 (configuration not stated) shows Log 1/MMIC of 0.5 or higher.
-- reply Criterion met

-- ask Hi, just wondering whether COC(=O)c1cnc(I)cn1 shows Log 1/MMIC of 0.5 or higher.
-- reply Criterion not met

* * *

Test system: Mycobacterium kansasii
assayRemarks: in vitro activity against Mycobacterium kansasii (SWK).
Assay type: functional
resultType: Log 1/MMIC
Format: numeric value only, no unit, no commentary.

Some compounds with known Log 1/MMIC results, for comparison:
1. CCCCCCCC(C)(CCCC)OC(=O)c1cnc(Cl)cn1 (centres undefined) | 1.329
2. CCCCCC(C)(CCCC)OC(=O)c1cnc(Cl)cn1 (centres undefined) | 1.291
3. CCCCCCC(C)(CCCC)OC(=O)c1cnc(Cl)cn1 (centres undefined) | 1.912

-- ask Which measured Log 1/MMIC value corresponds to CCCCCCCC(C)OC(=O)c1cnc(Cl)cn1 (centres undefined) ?
-- reply 3.977
